Test system: Phytophthora infestans
Format: in vivo
details: tomato plants, protective, active compound concentration 500 ppm, evaluation 7 days after inoculation
experimental endpoint: efficacy (%)
Give the number; % is assumed, so skip it.

Examples with answers:
## Task Which value of efficacy has been reported for "O=C(/C=C/c1csc(C2CCN(C(=O)Cn3nc(C(F)F)cc3C(F)F)CC2)n1)c1ccccc1Br" in the records?
## Result 100

## Task Look at this compound and give its reported efficacy. "Cc1cc(C(F)(F)F)nn1CC(=O)N1CCC(c2nc(C(=O)Cc3ccccc3)cs2)CC1"
## Result 80

## Task Record request: efficacy value, item CC1CCCCC1C(=O)C=Cc1csc(C2CCN(C(=O)Cn3nc(C(F)F)cc3C(F)F)CC2)n1 (mixture of isomers)
## Result 95

## Task Record request: efficacy value, item "O=C(/C=C/c1csc(C2CCN(C(=O)Cn3nc(C(F)F)cc3C(F)F)CC2)n1)c1cccc2ccccc12"
## Result 95

## Task Entry "Cc1ccc(Cl)cc1NC(=O)N1CCC(c2nc(C(=O)CC3CCCCC3)cs2)CC1" has what efficacy?
## Result 100

## Task Give its efficacy value. Item: CC(CC(=O)c1c(F)cccc1F)c1csc(C2CCN(C(=O)Cn3nc(C(F)F)cc3C(F)F)CC2)n1 (stereo not drawn)
## Result 98

## Task # lookup: efficacy of "COc1cccc(OC)c1C(=O)/C=C/c1csc(C2CCN(C(=O)Cn3nc(C(F)F)cc3C(F)F)CC2)n1"
## Result 90

## Task Quick one: efficacy of "COc1ccc(C(=O)/C=C/c2csc(C3CCN(C(=O)Cn4nc(C(F)F)cc4C(F)F)CC3)n2)c(F)c1" ?
## Result 94

Further cases:
## Task Which value of efficacy has been reported for "O=C(/C=C/c1csc(C2CCN(C(=O)Cn3nc(C(F)F)cc3C(F)F)CC2)n1)c1c(F)cccc1Cl" in the records?
## Result 100

## Task Item under review: "O=C(/C=C/c1csc(C2CCN(C(=O)Cn3nc(C(F)F)cc3C(F)F)CC2)n1)C1CCCCC1" . Reported efficacy?
## Result 95

## Task Reported efficacy, compound "O=C(/C=C/c1csc(C2CCN(C(=O)Cn3nc(C(F)F)cc3C(F)F)CC2)n1)c1c(F)cc(F)cc1F" : ____
## Result 98

## Task Give its efficacy value. Item: "O=C(/C=C/c1csc(C2CCN(C(=O)Cn3nc(C(F)F)cc3C(F)F)CC2)n1)c1ccc(F)cc1Br"
## Result 95

## Task Dear colleague, I am looking for the recorded efficacy of the following compound: "O=C(/C=C/c1csc(C2CCN(C(=O)Cn3nc(C(F)F)cc3C(F)F)CC2)n1)c1ccccc1I"
## Result 95

## Task Please report the recorded efficacy for "O=C(/C=C/c1csc(C2CCN(C(=O)Cn3nc(C(F)F)cc3C(F)F)CC2)n1)c1c(Cl)cccc1Cl" .
## Result 90

## Task Any idea what its efficacy is? The compound is "CO/N=C(/Cc1cccc(C)c1C)c1csc(C2CCN(C(=O)Cn3nc(C(F)F)cc3C(F)F)CC2)n1"
## Result 95
